experiment description: qHTS assay to identify small molecule agonists of the farnesoid-X-receptor (FXR) signaling pathway - cell viability counter screen (AID 743218); further: on the % scale 0 is the no-effect control and ±100 the full control effect; nearly all actives have a fitted effect of over 45% in size
measurement parameters: FXR-bla HEK293T viability, CellTiter-Glo luminescence, 16 h; series mostly up to 62.6 µM
Inconclusive results are not listed. Activity calls are given as the source filed them. The call rests on the fitted dose curve; in most records, active means well fitted cell-killing curve with a large enough effect in the repeat runs; inconclusive means weak or mixed curves, or effect the other way; inactive means no such curve, though single readings can be large or run the other way.
measure name: viability change, negative = cytotoxic

Some entries whose results are on file:
{"molecule": "CC/C=C\\CCOC(C)OCC (stereo not drawn)", "reading": "inactive"}
{"molecule": "CCCCCCCCCC[N+](C)(C)[O-]", "reading": "inactive"}
{"molecule": "CC(C)[C@H]1CC[C@@H](C)CC1=O", "reading": "inactive"}
{"molecule": "C=CN1CCCCCC1=O", "reading": "inactive"}
{"molecule": "Nc1c2c(nc3c1CCC3)CCCC2", "reading": "inactive"}

Which viability change, negative = cytotoxic is listed for CCCCCCCC1CCCC1=O (stereo not drawn) ?
inactive

Recorded viability change, negative = cytotoxic of CN1[C@@H]2CC[C@H]1CC(OC(=O)C(O)c1ccccc1)C2 (stereo partly drawn) , please.
inactive

Suppose we examine the molecule N[C@H](C(=O)O)[C@@H](O)c1ccc(O)c(O)c1 ; what viability change, negative = cytotoxic value has been reported?
inactive

* * *

measurement target: Luciferin 4-monooxygenase (Photinus pyralis) (UniProt P08659)
Sequence (P08659 whole entry, looked up): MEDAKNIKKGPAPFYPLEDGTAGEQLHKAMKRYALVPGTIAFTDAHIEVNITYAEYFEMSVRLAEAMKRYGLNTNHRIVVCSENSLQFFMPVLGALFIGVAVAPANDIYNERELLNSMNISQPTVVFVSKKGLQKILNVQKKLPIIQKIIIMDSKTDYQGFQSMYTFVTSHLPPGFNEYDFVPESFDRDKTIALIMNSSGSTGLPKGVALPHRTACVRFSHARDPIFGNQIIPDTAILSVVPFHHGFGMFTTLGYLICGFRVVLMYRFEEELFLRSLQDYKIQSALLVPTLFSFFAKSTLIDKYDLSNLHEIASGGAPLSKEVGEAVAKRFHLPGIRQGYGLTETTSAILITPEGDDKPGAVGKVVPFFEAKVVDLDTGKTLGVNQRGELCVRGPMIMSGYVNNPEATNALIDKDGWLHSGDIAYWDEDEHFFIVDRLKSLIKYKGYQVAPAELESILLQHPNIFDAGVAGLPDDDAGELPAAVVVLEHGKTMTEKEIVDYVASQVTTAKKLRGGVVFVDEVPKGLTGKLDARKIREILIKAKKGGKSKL
experiment description: qHTS assay to identify small molecule inhibitors of firefly luciferase (AID 1224835); further: on the % scale 0 is the no-effect control and ±100 the full control effect; nearly all actives have a fitted effect of over 25% in size
measurement parameters: purified P. pyralis luciferase, luminescence inhibition; series mostly up to 115 µM
Inconclusive results are not listed. Activity calls are given as the source filed them. Calls come from the whole dose curve; as a rule, active = well fitted inhibition curve with a large enough effect in the repeat runs; inconclusive = weak or mixed curves; inactive = flat fitted curve, though single readings scatter.
measure name: activity change, negative = inhibition

# annotated cases, reported activity change, negative = inhibition shown
{"compound": "CCCc1nn(C)c2c(=O)[nH]c(-c3cc(S(=O)(=O)N4CCN(C)CC4)ccc3OCC)nc12", "reading": "inactive"}
{"compound": "O=C(O)c1cc(C(=O)O)cc(C(=O)O)c1", "reading": "inactive"}
{"compound": "Nc1ccncc1N", "reading": "inactive"}
{"compound": "Cc1onc(-c2c(Cl)cccc2Cl)c1C(=O)Cl", "reading": "inactive"}
{"compound": "O=C(O)CNC(=O)c1ccc(CO)o1", "reading": "inactive"}

In the following, a different compound is considered.
What does the data say about its activity change, negative = inhibition? Entry: COc1cc(C(=O)NCc2ccc(OCCN(C)C)cc2)cc(OC)c1OC
inactive

* * *

experiment description: qHTS assay to test for compound auto fluorescence at 590 nm (red) in HepG2 cells (AID 720674); further: on the % scale 0 is the no-effect control and ±100 the full control effect
measurement parameters: HepG2 autofluorescence, red 540/590 nm, 1 h; series mostly up to 91.3 µM
Activity calls are given as the source filed them. Calls come from the whole dose curve; as a rule, active = well fitted curve in the direction sought with a large enough effect in the repeat runs; inconclusive = weak or mixed curves; inactive = flat fitted curve, though single readings scatter.
measure name: fluorescence, relative to Rose Bengal

Answered cases to consult:
{"compound": "CC(=O)c1ccccc1[N+](=O)[O-]", "reading": "inactive"}
{"compound": "CC(C(=O)O)c1cccc(Oc2ccccc2)c1 (stereo unspecified)", "reading": "-0.601% [at 18.6 µM] (inactive)"}
{"compound": "CC(C)(C)c1ccc(-c2ccc(C(C)(C)C)cc2)cc1", "reading": "inactive"}
{"compound": "C=CC(C)(CCC=C(C)C)OC(=O)CC (stereo unspecified)", "reading": "inactive"}
{"compound": "O=C(O)c1cn(C2CC2)c2cc(N3CCNCC3)c(F)cc2c1=O", "reading": "-0.332% [at 18.6 µM] (inactive)"}

What does the record list as fluorescence, relative to Rose Bengal for CCCC[N+](C)(CCCC)CCCC ?
inactive

I have this compound here, CC(=O)N1C[C@H](O)C[C@H]1C(=O)O , and I need its recorded fluorescence, relative to Rose Bengal.
inactive

Which value of fluorescence, relative to Rose Bengal has been reported for O=C(CO)[C@@H](O)[C@H](O)[C@H](O)CO in the records?
inactive

* * *

experiment description: qHTS RealTime-Glo MT Cell Viability Assay in HEK293 cells - 40 hour (AID 1224874); further: on the % scale 0 is the no-effect control and ±100 the full control effect; nearly all actives have a fitted effect of over 50% in size
measurement parameters: RealTime-Glo luminescence; stronger effect = lower value
Records with an inconclusive call do not appear.
measure name: max response (%)
Your answer should be a plain number; it is taken to be in %.

{"molecule": "CC(C#N)(CCC(=O)O)N=NC(C)(C#N)CCC(=O)O (configuration not stated)", "max response (%)": 3.09}

What measured max response goes with CCCCCCCCCCCCSC ?
0.729

Look up max response: Clc1cc(Cl)cc(Cl)c1
12.7

What value of measured max response is listed for Cc1ncc([C@@H](CCCCCCc2ccc3c(n2)NCCC3)CC(=O)O)cn1 ?
4.72

Field request: max response | item: Cc1onc(-c2c(Cl)cccc2Cl)c1C(=O)Cl
2.75

Could you tell me which max response is on file for COc1cc(C(=O)NCc2ccc(OCCN(C)C)cc2)cc(OC)c1OC ?
-23.7

Field request: max response | item: CC(C)COC(=O)c1ccc(N)cc1
-12.8

Fill in the blank: the reported max response of CCC(C(=O)NC(=O)NC(C)=O)c1ccccc1 (configuration not stated) is ____.
-7.54

Param item = O=[N+]([O-])c1cncn1CCN1CCOCC1 ; retrieve measured max response.
-2.63

Report max response for O=C(CO)[C@@H](O)[C@H](O)[C@H](O)CO please.
1.94

Endpoint output: max response of CCCCCC(C)N (configuration not stated) . Value?
1.04

Endpoint output: max response of CN(C)C(=O)Oc1cccc([N+](C)(C)C)c1 . Value?
6.55

Quick one: max response for O=[N+]([O-])c1ccc(/C=N\O)o1 ?
4.52

* * *

experiment description: qHTS assay to identify small molecule antagonists of the estrogen receptor alpha (ER-alpha) signaling pathway using the BG1 cell line in the presence of 0.1 nM 17-beta-estradiol - cell viability counter screen (AID 1259241); further: on the % scale 0 is the no-effect control and ±100 the full control effect; nearly all actives have a fitted effect of over 40% in size
measurement parameters: VM7Luc4E2 (BG1) viability, CellTiter-Fluor protease, 22 h, 0.1 nM estradiol agonist added; series mostly up to 92.4 µM
Records with an inconclusive call do not appear. Active and inactive are the calls of the source. Calls come from the whole dose curve; as a rule, active = well fitted cell-killing curve with a large enough effect in the repeat runs; inconclusive = weak or mixed curves, or effect the other way; inactive = flat fitted curve, though single readings scatter.
measure name: activity change, negative = cytotoxicity

# example entries with known answers
{"molecule": "O=C(O)Cc1csc(-c2ccc(Cl)cc2)n1", "measure name": "activity change, negative = cytotoxicity", "reading": "inactive"}
{"molecule": "COc1ccnc(CS(=O)c2nc3cc(OC(F)F)ccc3[nH]2)c1OC (centres undefined)", "measure name": "activity change, negative = cytotoxicity", "reading": "inactive"}
{"molecule": "O=S(=O)(O)c1cccc2ccccc12", "measure name": "activity change, negative = cytotoxicity", "reading": "inactive"}
{"molecule": "CO[C@@]1(NC(=O)C(C(=O)O)c2ccc(O)cc2)C(=O)N2C(C(=O)O)=C(CSc3nnnn3C)CO[C@@H]21 (some centres undefined)", "measure name": "activity change, negative = cytotoxicity", "reading": "inactive"}
{"molecule": "CC(C)CCCO", "measure name": "activity change, negative = cytotoxicity", "reading": "inactive"}
{"molecule": "CCCCCCC1CCC(=O)O1 (centres undefined)", "measure name": "activity change, negative = cytotoxicity", "reading": "inactive"}

Item under review: C[N+]1(CC2COC(c3ccccc3)(c3ccccc3)O2)CCCCC1 (centres undefined) . Reported activity change, negative = cytotoxicity?
0.56% [at 19 µM] (inactive)

Give the measured activity change, negative = cytotoxicity of CCCC(=O)O[C@]1(C(=O)CC)CC[C@H]2[C@@H]3CCC4=CC(=O)CC[C@]4(C)[C@H]3[C@@H](O)C[C@@]21C .
inactive

Which measured activity change, negative = cytotoxicity value corresponds to CCOC(=O)C(=O)CCCCCCl ?
inactive

* * *

measurement target: Androgen receptor (Homo sapiens)
experiment description: qHTS assay to identify small molecule antagonists of the androgen receptor (AR) signaling pathway using the MDA cell line in the presence of 0.5 nM R1881 (AID 1259243); further: nearly all actives have a fitted effect of over 50% in size
measurement parameters: MDA-kb2 MMTV-luciferase, R1881 0.5 nM, 16 h; series mostly up to 42.5 µM
From the text: U.S. Tox21 Program National Center for Advancing Translational Sciences [NCATS] NIH Chemical Genomics Center [NCGC] U.S. Environmental Protection Agency [EPA] National Institutes of Environmental Health Sciences [NIEHS] National Toxicology Program [NTP] U.S. Food and Drug Administration [FDA] Tox21 Assay Overview: Androgen receptor (AR) is an important member of the nuclear receptor family. Its signaling plays a critical role in AR-dependent prostate cancer and other androgen related diseases. […]
Records with an inconclusive call do not appear. Active and inactive are the calls of the source. Calls come from the whole dose curve; as a rule, active = well fitted inhibition curve with a large enough effect in the repeat runs; inconclusive = weak or mixed curves; inactive = no such curve, though single readings can be large or run the other way.
// one of class 1 = active, class 0 = inactive, no free text

Please review the entries below; each comes with its answer.
{"compound": "NS(=O)(=O)Cc1noc2ccccc12", "class label": "class 0"}
{"compound": "CNC(=O)Nc1ccc(Cl)c(Cl)c1", "class label": "class 1"}

Called result for COCCOC[C@H](CC1(C(=O)NC2CCC(C(=O)O)CC2)CCCC1)C(=O)Oc1ccc2c(c1)CCC2 (stereo not given in full)
class 0

Please indicate how the test categorized CC1(C)OC[C@@H](COC(=O)CCc2ccc(OC[C@@H](O)CNCCNC(=O)N3CCOCC3)cc2)O1 .
class 0

Can you look up the reported call for CC[N+](CC)(CC)CCOc1cccc(OCC[N+](CC)(CC)CC)c1OCC[N+](CC)(CC)CC for me?
class 0

// param item: Cc1ccc(-c2ccccc2C#N)cc1 ; yields the recorded call
class 1

Which outcome was entered for the compound O=C(c1ccccc1O)c1ccccc1O in this test?
class 1

Source listed as PubChem BioAssay (Tox21).
